Tested on: corn
run_description: Test G preemergence test
Format: in vivo, Zea mays
conditions: 250 g ai/ha, scale 0 to 100
assay_readout: Plant response rating, Corn
Provide a numeric answer; units are not to be included.

Take a look at these entries with their results.
>>> observed("Cc1cc[n+]([O-])c(S(=O)(=O)Cc2c(C(F)(F)F)nn(C)c2OC(F)F)c1")
10
>>> observed("Cc1cc[n+]([O-])c([S+]([O-])Cc2c(C(F)(F)F)nn(C)c2OC(F)F)c1 (centres unmarked)")
45
>>> observed("Cc1cc[n+]([O-])c(S(=O)(=O)C(Cl)c2c(C(F)(F)F)nn(C)c2Cl)c1 (racemic)")
0
>>> observed("Cn1nc(C(F)(F)F)c(C(Cl)S(=O)(=O)c2cccc[n+]2[O-])c1Cl (centres unmarked)")
0

Ask: Provide corn Plant response rating, Corn reading for Cn1nc(C(F)(F)F)c(CS(=O)(=O)c2ccc(Cl)c[n+]2[O-])c1OC(F)F .
Result: 0

* * *

Tested on: quackgrass
run_description: Test F preemergence test
Format: in vivo, Elytrigia repens
conditions: Preemergence; 31 g ai/ha; scale 0 to 100
# Plant response rating, Quackgrass per record follows
Returns: the value as a bare number; no unit string appended.

>>> observed("Cn1nc(C(F)(F)C(F)(F)F)c(C[S+]([O-])c2cccc[n+]2[O-])c1OCC(F)(F)F (stereo not shown) [Compound 79]")
35

Ask: State its Plant response rating, Quackgrass: CCc1cc[n+]([O-])c(S(=O)(=O)Cc2c(C(F)(F)F)nn(C)c2OCC(F)(F)F)c1 [Compound 60]
Result: 30

Ask: Return reported Plant response rating, Quackgrass. Input compound: CC(c1c(C(F)(F)F)nn(C)c1OCC(F)(F)F)S(=O)(=O)c1cccc[n+]1[O-] (racemic) [Compound 33]
Result: 25

Ask: Query Plant response rating, Quackgrass for Cc1cc[n+]([O-])c(S(=O)(=O)Cc2c(C(F)(F)F)nn(C)c2OC(F)F)c1 [Compound 2]
Result: 20

Ask: Find the measured Plant response rating, Quackgrass of Cn1nc(C(F)(F)F)c(C[S+]([O-])c2ccc(F)c[n+]2[O-])c1OC(F)F (stereo not shown) [Compound 58] and report it.
Result: 35

Ask: Item CCn1nc(C(F)(F)F)c(C[S+]([O-])c2cc(C)cc[n+]2[O-])c1OCC(F)(F)F (racemic) [Compound 66] : provide Plant response rating, Quackgrass
Result: 75

Ask: Identify measured Plant response rating, Quackgrass associated with CCn1nc(C(F)(F)F)c(CS(=O)(=O)c2cc(C)cc[n+]2[O-])c1OCC(F)(F)F [Compound 64]
Result: 75

Ask: Return reported Plant response rating, Quackgrass. Input compound: Cn1nc(C(F)(F)F)c(CS(=O)(=O)c2cccc[n+]2[O-])c1OC(F)F [Compound 4]
Result: 35

Ask: Please indicate Plant response rating, Quackgrass recorded for Cn1nc(C(F)(F)F)c(CS(=O)(=O)c2cccc[n+]2[O-])c1OCC(F)(F)F [Compound 29]
Result: 30

Ask: Could you please provide reported Plant response rating, Quackgrass for Cc1cc[n+]([O-])c(S(=O)(=O)Cc2c(C(F)(F)F)nn(C)c2Cl)c1 [Compound 19] ? Thanks!
Result: 0

Ask: Quick one: give measured Plant response rating, Quackgrass for Cn1nc(C(F)(F)F)c(C[S+]([O-])c2ccc(Cl)c[n+]2[O-])c1OC(F)F (stereo not shown) [Compound 6]
Result: 65

Ask: In one line, give reported Plant response rating, Quackgrass of the entry Cc1cc([S+]([O-])Cc2c(C(F)(F)F)nn(C)c2OCC(F)(F)F)[n+]([O-])cc1Cl (stereo not shown) [Compound 70] .
Result: 75

Ask: Dear colleague, please send me the reported Plant response rating, Quackgrass for Cn1nc(OC(F)F)c(CS(=O)(=O)c2cccc[n+]2[O-])c1C(F)(F)F [Compound 80] when you can.
Result: 65

* * *

Entries and their Mallow plant response rating values follow.
System: common mallow
run_description: Test F preemergence test
Type: in vivo, Malva sylvestris
conditions: 125 g ai/ha, preemergence, scale 0 to 100
Note: the reply should be a number with no unit written.

>>> observed("Cn1nc(C(F)(F)F)c(C[S+]([O-])c2cccc[n+]2[O-])c1Cl (stereo not drawn)")
80
>>> observed("Cn1nc(C(F)(F)F)c(C[S+]([O-])c2ccc(F)c[n+]2[O-])c1OCC(F)(F)F (stereo not drawn)")
100
>>> observed("Cn1nc(C(F)(F)F)c(CS(=O)(=O)c2cccc[n+]2[O-])c1OCC(F)(F)F")
100
>>> observed("CC(Oc1c(C[S+]([O-])c2ccc(Cl)c[n+]2[O-])c(C(F)(F)F)nn1C)C(F)(F)F (stereo not drawn)")
100
>>> observed("CC(Oc1c(C[S+]([O-])c2cccc[n+]2[O-])c(C(F)(F)F)nn1C)C(F)(F)F (stereo not drawn)")
100

# next compound below
Ask: Could you please provide reported Mallow plant response rating for Cc1cc[n+]([O-])c([S+]([O-])Cc2c(C(F)(F)F)nn(C)c2OCC(F)(F)F)c1 (racemic) ? Thanks!
Result: 100

* * *

# key: entry, value: Foxtail, Giant plant response rating
System: giant foxtail
run_description: Test A pre-/postemergence greenhouse test
Type: in vivo, Setaria faberi
conditions: Preemergence, 500 g ai/ha; 0 to 100 scale, 0 no effect, 100 complete control
Source text: Seeds of barnyardgrass (Echinochloa crus-galli), crabgrass (Digitaria sanguinalis), giant foxtail (Setaria faberi), morningglory (Ipomoea spp.), redroot pigweed (Amaranthus retroflexus), velvetleaf (Abutilon theophrasti), wheat (Triticum aestivum), and corn (Zea mays) were planted into a blend of loam soil and sand and treated preemergence with a directed soil spray using test compounds formulated in a non-phytotoxic solvent mixture which included a surfactant. […]
Would you mind answering with just the numeric figure?

>>> observed("CC(C)c1cc[n+]([O-])c(S(=O)(=O)Cc2c(C(F)(F)F)nn(C)c2OCC(F)(F)F)c1 [Compound 111]")
100

Ask: Specify Foxtail, Giant plant response rating for Cn1nc(C(F)(F)F)c(CS(=O)(=O)c2cc(C3CC3)cc[n+]2[O-])c1OC(F)F [Compound 118] and stop.
Result: 100

Ask: Name the recorded Foxtail, Giant plant response rating of the compound listed here: CC(C)c1cc[n+]([O-])c([S+]([O-])Cc2c(C(F)(F)F)nn(C)c2OC(F)F)c1 (stereo not shown) [Compound 109]
Result: 100

Ask: Return Foxtail, Giant plant response rating (reported value) for this compound: Cn1nc(C(F)(F)F)c(C[S+]([O-])c2cc(C3CC3)cc[n+]2[O-])c1OCC(F)(F)F (stereo not shown) [Compound 121]
Result: 100

Ask: For Cn1nc(C(F)(F)C(F)(F)F)c(CS(=O)(=O)c2ccc(Cl)c[n+]2[O-])c1OCC(F)(F)F [Compound 100] , write its Foxtail, Giant plant response rating.
Result: 90

Ask: Annotate the compound Cn1nc(C(F)(F)F)c(C[S+]([O-])c2cc(C3CC3)cc[n+]2[O-])c1OC(F)F (stereo not shown) [Compound 120] with its measured Foxtail, Giant plant response rating.
Result: 100

Ask: Could you please provide reported Foxtail, Giant plant response rating for Cn1nc(C(F)(F)F)c(CS(=O)(=O)c2ccc(F)c[n+]2[O-])c1OC(F)F [Compound 107] ? Thanks!
Result: 90

* * *

Tested on: large crabgrass
run_description: Test F preemergence test
Assay type: in vivo, Digitaria sanguinalis
conditions: 62 g ai/ha, Preemergence; scale 0 to 100
Reported Crabgrass, Large plant response rating is given for each of the following molecules.
Output: the number by itself.

>>> observed("Cc1cc([S+]([O-])Cc2c(C(F)(F)F)nn(C)c2OCC(F)(F)F)[n+]([O-])cc1Cl (stereo not drawn)")
70
>>> observed("Cn1nc(C(F)(F)F)c(C[S+]([O-])c2ccc(F)c[n+]2[O-])c1OCC(F)(F)F (stereo not drawn)")
98
>>> observed("Cc1cc[n+]([O-])c([S+]([O-])Cc2c(C(F)(F)F)nn(C)c2OC(F)F)c1 (stereo not drawn)")
95
>>> observed("Cc1cc[n+]([O-])c(S(=O)(=O)Cc2c(C(F)(F)F)nn(C)c2OC(F)F)c1")
90
>>> observed("Cn1nc(C(F)(F)F)c(C[S+]([O-])c2ccc(Cl)c[n+]2[O-])c1OCC(F)(F)F (racemic)")
90

Okay, now this molecule:
Ask: Provide the reported Crabgrass, Large plant response rating (system: large crabgrass) for Cc1cc[n+]([O-])c(S(=O)(=O)C(Cl)c2c(C(F)(F)F)nn(C)c2Cl)c1 (racemic)
Result: 70

* * *

Test system: eastern black nightshade
run_description: Test C pre-/postemergence test
Assay type: in vivo, Solanum ptycanthum
conditions: 31 g ai/ha, Preemergence; scale 0 to 100
assay_readout: Nightshade plant response rating

Worked cases, answers included:
>>> observed("Cc1cc[n+]([O-])c(S(=O)(=O)C(C)c2c(C(F)(F)F)nn(C)c2OC(F)F)c1 (stereo not shown)")
95
>>> observed("Cn1nc(C(F)(F)F)c(CS(=O)(=O)c2ccc(Cl)c[n+]2[O-])c1OC(F)F")
0
>>> observed("Cn1nc(C(F)(F)F)c(C[S+]([O-])c2cccc[n+]2[O-])c1OC(F)F (stereo not shown)")
85

Ask: # return Nightshade plant response rating for Cc1cc[n+]([O-])c(S(=O)(=O)C(C)c2c(C(F)(F)F)nn(C)c2Cl)c1 (racemic) , test system: eastern black nightshade
Result: 80

Reference for the values: patent US20100298141A1
